run description: Apparent permeability across apical to basolateral side in dog MDCKI cells at 10 uM measured after 60 to 180 mins by lucifer yellow dye based LC-MS/MS analysis
Type: ADME, cell-based, Canis lupus familiaris
condition set: MDCK
Would you mind labelling by Papp A→B at 10 µM? At or over 10 ×10⁻⁶ cm/s is Criterion met, under is Criterion not met.

Sample answers from the record:
Ask: State whether the measured Papp A→B at 10 µM reaches 10 ×10⁻⁶ cm/s, counting equality as reaching it, for CC(C)(O)[C@H](F)CN1Cc2cc(NC(=O)c3cnn4cccnc34)c(N3CCN(C4COC4)CC3)cc2C1=O
Reply: Criterion not met

Ask: # iterate: COC(C)(C)CCN1Cc2cc(NC(=O)c3cnn4cccnc34)c(N3CCOCC3)cc2C1=O
Reply: Criterion met

Ask: # iterate: CC(C)(O)[C@H](F)CN1Cc2cc(NC(=O)c3cnn4cccnc34)c(N3CCC(N4CCC4)CC3)cc2C1=O
Reply: Criterion not met

***
Ask: State whether the measured Papp A→B at 10 µM reaches 10 ×10⁻⁶ cm/s, counting equality as reaching it, for CC(C)(O)[C@H](F)CN1Cc2cc(NC(=O)c3cnn4cccnc34)c(N3CCOCC3)cc2S1(=O)=O
Reply: Criterion not met

Ask: # iterate: CC1(C)Cc2cc(NC(=O)c3cnn4cccnc34)c(N3CCOCC3)cc2O1
Reply: Criterion met

Ask: # iterate: CC(C)(O)[C@H](F)CN1Cc2cc(NC(=O)c3cnn4cccnc34)c(N3CCC(N4CC(F)(F)C4)CC3)cc2C1=O
Reply: Criterion met
